Tested on: 292921-168-R-J2-PDC complex spheroid growth;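 note: spheroids exposed to compounds for seven days after three days of growth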
Test: Anticancer human tumor 292921-168-R-J2-PDC patient-derived pancreatic carcinoma cell line growth inhibition [AhR]; active = viability on the fitted dose curve at most 10% of control; inactive = the rest
Conditions: second compound 3.16 µM; first compound 0.03 µM
One label from this list, please: Y (active), N (inactive)

Asked: Field: outcome | Entry: Nc1ncn(C2CC(O)C(CO)S2)c(=O)n1 (stereo not drawn) + Cc1cncc(-c2nc(NCCc3c[nH]c4ccccc34)c3ncn(C(C)C)c3n2)c1
Given back: N

Asked: Field: outcome | Entry: CC(C)CC(NC(=O)C(Cc1ccccc1)NC(=O)c1cnccn1)B(O)O (stereo not drawn) + Cc1cncc(-c2nc(NCCc3c[nH]c4ccccc34)c3ncn(C(C)C)c3n2)c1
Given back: Y

Asked: Field: outcome | Entry: CC(C)CC(NC(=O)C(Cc1ccccc1)NC(=O)c1cnccn1)B(O)O (stereo not drawn) + Cc1ccccc1N=Nc1ccc(NC(=O)c2ccnn2C)c(C)c1
Given back: Y
